# system: T1, Human IL-11 (human, UniProt P20809 22-199)
# T1 construct: Recombinant human IL-11 (GenScript Cat. No. Z03108-1) or IL-11 secreted by human cells; the mature form is said to have 178 residues; also called recombinant human IL-11; endogenously produced IL-11
# T1 sequence: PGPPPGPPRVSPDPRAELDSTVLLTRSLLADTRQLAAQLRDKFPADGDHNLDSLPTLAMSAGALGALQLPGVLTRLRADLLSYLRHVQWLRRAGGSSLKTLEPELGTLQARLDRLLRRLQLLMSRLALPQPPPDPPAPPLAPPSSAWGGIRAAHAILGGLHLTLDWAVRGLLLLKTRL
# test_name: ELISA on coated recombinant human IL-11 (100 ng/well), scFv-Fc
readout_kind: EC50 (µg/mL)

>>> experimental_result("YU100-F01 (antibody) QVQLVQSGGGVVQPGRSLRLSCAASGFTFSSYGMHWVRQAPGKGLEWVAVISYDGSNKYYADSVKGRFTISRDNSKNTLYLQMNSLRAEDTAVYYCAKIGATDPLDYWGQGTLVTVSSGSASAPKLEEGEFSEARVQSALTQPASVSGSPGQSITISCTGTGSDVGAYDYVSWYQQHPGKAPKLMIYDVNNRPSGVSNRFSGSKSGNTASLTISGLQAEDEAEYYCSSFATSISWVFGGGTRLTVL")
0.018
>>> experimental_result("YU100-E11 (antibody) QVQLVESGGGVVQPGRSLRLSCAASGFTFSSYGMHWVRQAPGKGLEWVAVISYDGSNKYYADSVKGRFTISRDNSKNTLYLQMNSLRAEDTAVYYCARIMGYDYGDYDVVDYWGQGTLVTVSSGSASAPKLEEGEFSEARVQSALTQPRSVSGSPGQSVTISCTGTSSDVGGYNYVSWYQQHPGKAPKLMIYDVSKRPSGVPDRFSGSKSGNTASLTISGLQAEDEADYYCCSYAGSYTWVFGGGTKLTVL")
0.028
>>> experimental_result("YU100-B08 (antibody) EVQLVQSGGGVVQPGRSLRLSCAASGFTFSSYGMHWVRQAPGKGLEWVAVISYDGSNKYYADSVKGRFTISRDNSKNTLYLQMNSLRAEDTAVYYCAKIGATDPLDYWGQGTLVTVSSGSASAPKLEEGEFSEARVQSALTQPASVSGSPGQSITISCTGTSSDVGGYNYVSWYQQHPGKVPRLLIYDVSNRPSGVSTRFSGSKSGNTASLTISGLQGEDEAEYYCSSFTSSTTWVFGGGTKLTVL")
0.021
